Assay: Clearance in nu/nu mouse at 1 mg/kg, iv or 5 mg/kg, po
Format: ADME, organism-based
Settings: in vivo
Test Readout: clearance (mL/min/kg)
Kindly provide the numeric value in mL/min/kg only, without the unit symbol.

Smiles Representation	Unit Info	clearance
Cc1c(CN2CCN(S(C)(=O)=O)CC2)sc2c(N3CCOCC3)nc(-c3cnc(N)nc3)nc12	mL/min/kg	15

Then this molecule:
Recorded clearance (molecule "CS(=O)(=O)N1CCN(Cc2cc3nc(-c4cnc(N)nc4)nc(N4CCOCC4)c3s2)CC1" ): 49

* * *

Test: Oral bioavailability in nu/nu mouse at 5 mg/kg
Type: ADME, organism-based
Conditions: in vivo
Test Readout: bioavailability (%)
Kindly provide the numeric value in % only, without the unit symbol.

Smiles Representation	bioavailability [%]
Cc1c(CN2CCN(S(C)(=O)=O)CC2)sc2c(N3CCOCC3)nc(-c3cnc(N)nc3)nc12	98

Then this compound:
Recorded bioavailability (compound "CS(=O)(=O)N1CCN(Cc2cc3nc(-c4cnc(N)nc4)nc(N4CCOCC4)c3s2)CC1" ): 81

* * *

Assay: Plasma protein binding in rat at 1 mg/kg, iv or 5 mg/kg, po
Assay type: ADME, organism-based
Settings: read-out: PPB (converted)
Test Readout: fraction unbound
Could you respond with only the numeric value?

Smiles Representation	fraction unbound
CC(=O)N(C)Cc1cc2nc(-c3cnc(N)nc3)nc(N3CCOCC3)c2s1	0.53

Then this compound:
Recorded fraction unbound (compound "CS(=O)(=O)c1cccc(-c2cc3nc(-c4cnc(N)nc4)nc(N4CCOCC4)c3s2)c1" ): 0.07

* * *

Listing of entries alongside the reported clearance.
Assay: Clearance in rat at 1 mg/kg, iv or 5 mg/kg, po
Format: ADME, organism-based
Settings: in vivo

Smiles Representation	clearance
CS(=O)(=O)c1cccc(-c2cc3nc(-c4cnc(N)nc4)nc(N4CCOCC4)c3s2)c1	56 mL/min/kg
CN1CCN(C(=O)c2cccc(-c3cc4nc(-c5cnc(N)nc5)nc(N5CCOCC5)c4s3)c2)CC1	52 mL/min/kg
CC(=O)N(C)Cc1sc2c(N3CCOCC3)nc(-c3cnc(N)nc3)nc2c1C	21 mL/min/kg

Recorded clearance (compound "Cc1c(CN2CCN(S(C)(=O)=O)CC2)sc2c(N3CCOCC3)nc(-c3cnc(N)nc3)nc12" ): 13 mL/min/kg

Recorded clearance (compound "Cc1c(-c2cccc(C(=O)N3CCN(C)CC3)c2)sc2c(N3CCOCC3)nc(-c3cnc(N)nc3)nc12" ): 15 mL/min/kg

Recorded clearance (compound "CC(=O)N(C)Cc1cc2nc(-c3cnc(N)nc3)nc(N3CCOCC3)c2s1" ): 50 mL/min/kg

Recorded clearance (compound "Cc1c(-c2cccc(S(C)(=O)=O)c2)sc2c(N3CCOCC3)nc(-c3cnc(N)nc3)nc12" ): 13 mL/min/kg

* * *

Assay: Thermodynamic solubility at pH 6.5
Type: physicochemical
Settings: buffer
The label depends only on solubility thermodynamic: True if it is at least 60 µg/mL, False if it is smaller.

Ask: Identify whether the reported solubility thermodynamic of the following compound is 60 µg/mL or greater: "CC(C)(N)c1cc2nc(-c3cnc(N)nc3)nc(N3CCOCC3)c2s1"
Result: True

* * *

Test system: Rattus norvegicus
Assay: Unbound clearance in rat at 1 mg/kg, iv or 5 mg/kg, po
Assay type: ADME, organism-based
Conditions: in vivo
Test Readout: log10 of Unbound clearance (log10 of the value in mL/min/kg)
Answers are given as log10 of Unbound clearance in mL/min/kg.

Smiles Representation	Subject Of Test	Assay Result
CC(=O)N(C)Cc1sc2c(N3CCOCC3)nc(-c3cnc(N)nc3)nc2c1C	Rattus norvegicus	1.63

Then this compound:
Recorded log10 of Unbound clearance (compound "CS(=O)(=O)N1CCN(Cc2cc3nc(-c4cnc(N)nc4)nc(N4CCOCC4)c3s2)CC1" ): 1.70
